Assay Method Text: Protein binding
Assay type: in vitro ADME
Condition Description: In vitro mouse plasma protein binding
Parameter threshold = 3%. Response is class 1 when perc_free meets or exceeds it, else class 0.

Sample Smiles	Qualitative Label
CC(C)[C@@H](Nc1ncnc2[nH]c(-c3cnn(C)c3C#N)cc12)c1ccc2c(n1)OCCO2	class 0
Cn1ncc(-c2cc3c(N[C@@H](c4ccc5c(n4)OCCO5)C(C)(C)C)ncnc3[nH]2)c1C#N	class 0
CC(C)[C@H](Nc1ncnc2[nH]c(-c3cnn(C)c3C#N)cc12)c1ccc2c(n1)OCCO2	class 0
C[C@H](C(=O)O)[C@@H](NC(=O)c1ncnc2[nH]ccc12)c1ccc(Br)cc1	class 1
COc1ccc([C@H](Cc2nnn[nH]2)NC(=O)c2ncnc3[nH]ccc23)cc1	class 1
CNCc1cc(-c2cc3c(N[C@@H](c4ccc5c(c4)S(=O)(=O)CCC5)C(C)C)ncnc3[nH]2)co1	class 1
CC(C)[C@H](Nc1ncnc2[nH]ccc12)c1ccc2c(c1)S(=O)(=O)CCC2	class 1

* * *

Target Entity: CYP1A2 (Homo sapiens)
Sequence (P05177 2-516): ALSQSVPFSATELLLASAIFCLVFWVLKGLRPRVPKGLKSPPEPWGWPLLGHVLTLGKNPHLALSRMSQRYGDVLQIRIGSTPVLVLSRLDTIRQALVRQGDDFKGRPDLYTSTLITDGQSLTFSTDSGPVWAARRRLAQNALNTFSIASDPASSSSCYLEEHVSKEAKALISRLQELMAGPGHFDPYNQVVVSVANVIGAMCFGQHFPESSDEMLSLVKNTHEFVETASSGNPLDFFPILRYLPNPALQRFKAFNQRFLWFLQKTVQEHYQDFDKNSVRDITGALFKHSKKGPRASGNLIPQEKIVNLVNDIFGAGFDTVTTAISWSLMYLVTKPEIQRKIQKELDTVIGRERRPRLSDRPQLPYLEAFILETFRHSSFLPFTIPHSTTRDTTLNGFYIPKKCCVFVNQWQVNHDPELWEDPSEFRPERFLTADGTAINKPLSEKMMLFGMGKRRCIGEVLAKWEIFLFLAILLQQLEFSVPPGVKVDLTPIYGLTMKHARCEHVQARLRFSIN
Assay Method Text: CYP inhibition
Assay type: in vitro ADME
Condition Description: human; isoform 1A2; In vitro CYP inhibition pooled
Assay Readout: IC50

Molecule	Target Entity	Assay Readout	Data Value
CC(C)C(Nc1ncnc2[nH]c(C(=O)NC3CCN(C)C3)cc12)c1ccc2c(c1)S(=O)(=O)CCC2 (stereo not shown)	CYP1A2 (Homo sapiens)	IC50	> 50 µM

* * *

Assay Method Text: Protein binding
Format: in vitro ADME
Condition Description: In vitro fetal calf serum protein binding
Assay Readout: perc_bound (%)

Molecule	Data Value
C[C@H](C(=O)O)[C@@H](NC(=O)c1ncnc2[nH]ccc12)c1ccc(Br)cc1 [ASAP-0014722]	95.7
CC(C)[C@@H](Nc1ncnc2[nH]c(-c3cnn(C)c3C#N)cc12)c1ccc2c(n1)OCCO2 [ASAP-0010716]	96.2
Cn1ncc(-c2cc3c(N[C@@H](c4ccc5c(n4)OCCO5)C(C)(C)C)ncnc3[nH]2)c1C#N [ASAP-0011221]	97.9
CC(C)[C@H](Nc1ncnc2[nH]c(-c3cnn(C)c3C#N)cc12)c1ccc2c(n1)OCCO2 [ASAP-0010715]	92.8
CNCc1cc(-c2cc3c(N[C@@H](c4ccc5c(c4)S(=O)(=O)CCC5)C(C)C)ncnc3[nH]2)co1 [ASAP-0011176]	92.0
COc1ccc([C@H](Cc2nnn[nH]2)NC(=O)c2ncnc3[nH]ccc23)cc1 [ASAP-0015381]	93.9
CC(C)[C@H](Nc1ncnc2[nH]ccc12)c1ccc2c(c1)S(=O)(=O)CCC2 [ASAP-0008674]	90.5

* * *

Entries and their pEC50 values follow.
Tested on: SARS-CoV-2, isolate USA-WA1/2020
Assay Method Text: microbe, parasite or virus in culture
Format: cell-based
Condition Description: Severe acute respiratory syndrome coronavirus 2, HeLa-ACE2, read-out: HelaACE2 EC50
pEC50: −log10 of the molar value.

Compound	pEC50
CC(C)C(Nc1ncnc2[nH]c(C(=O)NC3CCN(C)C3)cc12)c1ccc2c(c1)S(=O)(=O)CCC2 (centres unmarked)	< 4.70
Cc1nn(C)cc1-c1cc2c(NC(c3ccc4c(c3)S(=O)(=O)CCC4)C(C)C)ncnc2[nH]1 (centres unmarked)	< 4.70

* * *

Assay Method Text: Hepatic microsomal stability, MLM
Type: in vitro ADME
Condition Description: In vitro mouse liver microsomal stability
Rule: t_half below 9 min gives MET, anything at or above gives NOT MET.

Compound	Qualitative Label
CC(C)[C@@H](Nc1ncnc2[nH]c(-c3cnn(CC(=O)N(C)C)c3)cc12)c1ccc2c(c1)OCCO2	NOT MET
CC(C)[C@@H](Nc1ncnc2[nH]c(-c3cnn(C)c3C#N)cc12)c1ccc2c(c1)OCCO2 [ASAP-0011033]	NOT MET
CC(C)[C@H](Nc1ncnc2[nH]c(-c3cnn(CC(N)=O)c3)cc12)c1ccc2c(c1)S(=O)(=O)CCC2 (single isomer, unassigned) [ASAP-0011428]	NOT MET
CC(C)[C@@H](Nc1ncnc2[nH]c(-c3cnn(C)c3C#N)cc12)c1ccc2c(n1)NC(=O)CO2 [ASAP-0008644]	NOT MET
CC(C)[C@@H](Nc1ncnc2[nH]c(-c3cnn(C)c3C#N)cc12)c1ccc2c(c1)OCCO2 (racemic) [ASAP-0008275]	MET
CC(C)[C@@H](Nc1ncnc2[nH]cc(C(=O)NC3CC3)c12)c1ccc2c(c1)S(=O)(=O)CCC2	MET
COc1ccc([C@H](CC(=O)O)NC(=O)c2ncnc3[nH]ccc23)cc1 (racemic)	NOT MET
CCNC(=O)c1cc2c(N[C@@H](c3ccc4c(c3)S(=O)(=O)NCC4)C(C)C)ncnc2[nH]1	NOT MET
CNCc1cc(-c2cc3c(N[C@H](c4ccc5c(c4)S(=O)(=O)CCC5)C(C)C)ncnc3[nH]2)co1 (single isomer, unassigned)	NOT MET
CNCc1cc(-c2cc3c(N[C@@H](c4ccc5c(c4)S(=O)(=O)CCC5)C(C)C)ncnc3[nH]2)co1 [ASAP-0010745]	NOT MET
CNC(=O)c1cc2c(N[C@H](c3ccc4c(c3)S(=O)(=O)CCC4)C(C)C)ncnc2[nH]1 (single isomer, unassigned)	NOT MET
CC(C)[C@H](Nc1ncnc2[nH]c(-c3cnn(C)c3C#N)cc12)c1ccc2c(c1)NC(=O)CO2 (single isomer, unassigned) [ASAP-0013256]	NOT MET
COCCNC(=O)c1c[nH]c2ncnc(N[C@H](c3ccc4c(c3)S(=O)(=O)CCC4)C(C)C)c12 (racemic)	MET
CC(C)[C@@H](Nc1ncnc2[nH]c(-c3cnn(C)c3C#N)cc12)c1ccc2c(n1)OCCO2	MET
CC(C)[C@@H](Nc1ncnc2[nH]c(-c3cnn(C)c3C#N)cc12)c1ccc2c(c1)S(=O)(=O)CCC2 (single isomer, unassigned) [ASAP-0011147]	MET
CC(C)[C@@H](Nc1ncnc2[nH]c(-c3ccc4cncn4c3)cc12)c1ccc2c(c1)S(=O)(=O)CCC2	NOT MET
COc1ccc2c(c1)CCN(c1ncnc3[nH]ccc13)[C@H]2C(C)C (racemic)	MET
CC(C)[C@@H](Nc1ncnc2[nH]c(-c3cnn(CCC(N)=O)c3)cc12)c1ccc2c(c1)OCCO2	NOT MET
CNC(=O)c1c[nH]c2ncnc(N[C@H](c3ccc4c(c3)S(=O)(=O)CCC4)C(C)C)c12 (racemic) [ASAP-0008641]	MET
CC(C)[C@H](Nc1ncnc2[nH]c(-c3cnn(CC(N)=O)c3)cc12)c1ccc2c(n1)OCCO2	NOT MET
CC(C)[C@@H](Nc1ncnc2[nH]ccc12)c1ccc2c(c1)S(=O)(=O)CCC2 (single isomer, unassigned)	NOT MET
CCNC(=O)c1cc2c(N[C@H](c3ccc4c(c3)S(=O)(=O)CCC4)C(C)C)ncnc2[nH]1 [ASAP-0012325]	NOT MET
CNC(=O)c1cccc(-c2cc3c(N[C@H](c4ccc5c(c4)S(=O)(=O)CCC5)C(C)C)ncnc3[nH]2)c1 (single isomer, unassigned)	MET
CNC(=O)c1c[nH]c2ncnc(N[C@@H](c3ccc4c(c3)OCCO4)C(C)C)c12	NOT MET
CC(C)[C@H](Nc1ncnc2[nH]cc(C(N)=O)c12)c1ccc2c(c1)OCCO2 (racemic)	NOT MET
CCNC(=O)c1cc2c(N[C@H](c3ccc4c(c3)S(=O)(=O)CCC4)C(C)C)ncnc2[nH]1 (racemic) [ASAP-0008711]	NOT MET
